The origin of these recorded values is patent US8623429B2.

experiment: Example 5: degradation over time of black currant anthocyanosides at 37° C., pH 7.0, with/without GSH (HPLC); assay type: physicochemical; conditions: GSH protected sample (20 mg), pH 7.0, 37° C., 4:15 h
measurement-type: Peak Area
Write the value as a bare number.

Reported Peak Area for OC[C@H]1O[C@@H](Oc2cc3c(O)cc(O)cc3[o+]c2-c2ccc(O)c(O)c2)[C@H](O)[C@@H](O)[C@@H]1O [Cn-3O-Glc, Cyanidin 3-o-glucoside] was 300.3

Reported Peak Area for C[C@@H]1O[C@@H](OC[C@H]2O[C@@H](Oc3cc4c(O)cc(O)cc4[o+]c3-c3cc(O)c(O)c(O)c3)[C@H](O)[C@@H](O)[C@@H]2O)[C@H](O)[C@H](O)[C@H]1O [Dp-3-O-Rut, Delphinidin-3-O-rutinoside] was 2579.8

Reported Peak Area for C[C@@H]1O[C@@H](OC[C@H]2O[C@@H](Oc3cc4c(O)cc(O)cc4[o+]c3-c3ccc(O)c(O)c3)[C@H](O)[C@@H](O)[C@@H]2O)[C@H](O)[C@H](O)[C@H]1O [Cn-3-O-Rut, Cyanidin-3-O-rutinoside] was 2199.7

Reported Peak Area for OC[C@H]1O[C@@H](Oc2cc3c(O)cc(O)cc3[o+]c2-c2cc(O)c(O)c(O)c2)[C@H](O)[C@@H](O)[C@@H]1O [Dp-3O-Glc, Delphinidin 3-o-glucoside] was 682.0
